Source: patent US20240360228A1

target: T1, human CCR8 (human, UniProt P51685 1-355); experiment: flow blocking, PBMC CCR8+CD3+; competitor PE-AB5
T1 construct: Native CCR8 on human PBMC (CCR8+ CD3+ or CCR8+ CD4+ lymphocytes); also called chemokine (C-C motif) receptor 8
T1 sequence (P51685 whole entry): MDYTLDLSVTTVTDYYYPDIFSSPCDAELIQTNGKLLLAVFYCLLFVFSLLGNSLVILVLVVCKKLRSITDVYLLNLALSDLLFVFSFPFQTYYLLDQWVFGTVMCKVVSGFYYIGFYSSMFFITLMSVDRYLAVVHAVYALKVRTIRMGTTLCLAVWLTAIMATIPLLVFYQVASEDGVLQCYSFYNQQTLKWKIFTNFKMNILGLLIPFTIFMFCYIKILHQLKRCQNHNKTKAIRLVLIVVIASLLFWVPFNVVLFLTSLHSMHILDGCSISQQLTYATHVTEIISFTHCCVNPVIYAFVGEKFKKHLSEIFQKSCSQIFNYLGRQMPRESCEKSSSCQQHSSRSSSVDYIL
Entries and their % Blocking values follow.
measured.endpoint: % Blocking (%)

[
  {
    "binder": "AB11 (antibody, V domains shown, Hybridoma monoclonal; also called antibody 11; clone 11) VH: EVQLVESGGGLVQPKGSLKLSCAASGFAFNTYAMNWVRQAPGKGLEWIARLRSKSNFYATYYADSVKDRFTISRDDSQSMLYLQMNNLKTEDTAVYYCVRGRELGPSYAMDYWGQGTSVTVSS VL: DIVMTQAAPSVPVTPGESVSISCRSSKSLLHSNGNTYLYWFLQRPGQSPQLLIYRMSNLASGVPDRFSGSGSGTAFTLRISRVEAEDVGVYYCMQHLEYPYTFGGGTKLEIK",
    "value": -2.94
  },
  {
    "binder": "AB10 (antibody, V domains shown, Hybridoma monoclonal; also called antibody 10; clone 10) VH: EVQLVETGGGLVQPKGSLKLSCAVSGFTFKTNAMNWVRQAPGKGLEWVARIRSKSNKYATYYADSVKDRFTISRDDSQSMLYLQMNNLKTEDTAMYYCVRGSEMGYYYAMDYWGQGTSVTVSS VL: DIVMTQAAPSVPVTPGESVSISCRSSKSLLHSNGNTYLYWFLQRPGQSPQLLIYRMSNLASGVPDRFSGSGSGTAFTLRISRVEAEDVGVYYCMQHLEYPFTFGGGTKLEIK",
    "value": -8.37
  },
  {
    "binder": "AB6 (antibody, V domains shown, Hybridoma monoclonal; Same VH/VL entries as AB5; also called antibody 6; clone 6) VH: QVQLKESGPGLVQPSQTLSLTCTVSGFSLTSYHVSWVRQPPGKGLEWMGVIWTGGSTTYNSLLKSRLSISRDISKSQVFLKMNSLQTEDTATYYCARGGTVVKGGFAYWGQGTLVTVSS VL: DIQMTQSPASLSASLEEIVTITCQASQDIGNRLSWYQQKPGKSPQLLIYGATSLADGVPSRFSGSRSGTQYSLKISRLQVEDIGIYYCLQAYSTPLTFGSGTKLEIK",
    "value": 0.71
  },
  {
    "binder": "AB13 (antibody, V domains shown, Hybridoma monoclonal; also called antibody 13; clone 13) VH: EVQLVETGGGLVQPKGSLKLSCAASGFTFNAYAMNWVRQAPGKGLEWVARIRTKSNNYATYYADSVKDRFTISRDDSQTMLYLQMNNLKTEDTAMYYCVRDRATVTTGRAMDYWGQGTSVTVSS VL: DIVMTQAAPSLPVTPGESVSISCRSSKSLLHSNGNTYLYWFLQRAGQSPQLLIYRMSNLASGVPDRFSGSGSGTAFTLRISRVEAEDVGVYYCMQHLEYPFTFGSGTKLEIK",
    "value": -14.7
  }
]
